tested on: Blumeria graminis f. sp. tritici; assay: Test I: wheat powdery mildew, preventive spray on wheat seedlings, visual disease rating; details: wheat powdery mildew; 100 = 100% disease control, 0 = no disease control relative to the controls
OBSERVED PROPERTY: Test I rating (disease control) (%)
All answers are understood in %, so give the number only.

# MOLECULE, OBSERVED PROPERTY, UNIT NAME, VALUE
records = [
    ("Cc1nn(C)c(Oc2c(F)cc(C#N)cc2F)c1-c1ccccc1F [compound 91]", "Test I rating (disease control)", "%", 99),
    ("Cc1nn(C)c(Nc2c(F)cc(F)cc2F)c1-c1c(F)cc(C#N)cc1F [compound 35]", "Test I rating (disease control)", "%", 94),
    ("COc1cc(F)c(-c2c(C)nn(C)c2Oc2c(F)cc(Cl)cc2F)c(F)c1 [Compound 15]", "Test I rating (disease control)", "%", 100),
    ("Cc1nn(C)c(Oc2ccc(C#N)cc2F)c1-c1c(F)cc(F)cc1F [compound 27]", "Test I rating (disease control)", "%", 100),
]

Entry Cc1nn(C)c(Nc2ccc(Br)cc2Cl)c1-c1ccc(F)cc1F [compound 167] has what Test I rating (disease control)?
98

====

In this section we review reported pest or weed control at 200 µg/mL values for a set of compounds.
tested on: Blumeria graminis f. sp. tritici; assay: Test I: wheat powdery mildew, preventive spray on wheat seedlings, visual disease rating; conditions: Blumeria graminis, in Triticum aestivum, read-out: Test I rating (disease control), wheat powdery mildew; 100 = 100% disease control, 0 = no disease control relative to the controls
All answers are understood in %, so give the number only.

# COMPOUND, UNIT NAME, VALUE
measured = [
    ("COc1cc(F)c(-c2c(C)nn(C)c2Nc2ccc(F)cc2F)c(F)c1 [Compound 6]", "%", 100),
    ("Cc1nn(C)c(Oc2ccc(C#N)cc2Br)c1-c1ccc(F)cc1F [Compound 139]", "%", 0),
    ("Cc1nn(C)c(Nc2c(Cl)cc(F)cc2Cl)c1-c1c(F)cccc1F [Compound 142]", "%", 100),
    ("Cc1nn(C)c(Nc2c(F)cc(F)cc2F)c1-c1ccc(F)cc1Cl [Compound 4]", "%", 100),
]

Entry Cc1nn(C)c(Oc2c(F)cc(C#N)cc2F)c1-c1ccc(F)cc1Cl [Compound 13] has what pest or weed control at 200 µg/mL?
100

====

system: Blumeria graminis f. sp. tritici; assay: Test I: wheat powdery mildew, preventive spray on wheat seedlings, visual disease rating; settings: wheat powdery mildew; 100 = 100% disease control, 0 = no disease control relative to the controls
OBSERVED PROPERTY: Test I rating (disease control) (%)
All answers are understood in %, so give the number only.

// solved cases for Test I rating (disease control) follow
# COMPOUND, Test I rating (disease control) [%]
data = [
    ("Cc1nn(C)c(Nc2ccc(F)cc2Cl)c1-c1ccc(F)cc1Br", 100),
    ("Cc1nn(C)c(Nc2ccc(Br)cc2F)c1-c1ccc(F)cc1Br", 99),
    ("COc1cc(F)c(Nc2c(-c3c(F)cc(C#N)cc3F)c(C)nn2C)c(F)c1", 0),
    ("COc1ccc(Nc2c(-c3c(F)cccc3F)c(C)nn2C)c(F)c1", 100),
    ("Cc1nn(C)c(Nc2ccc(Cl)cc2Cl)c1-c1c(F)cccc1F", 100),
    ("Cc1nn(C)c(Nc2ccc(F)cc2F)c1-c1c(F)cccc1F", 100),
    ("Cc1nn(C)c(Oc2c(F)cc(C#N)cc2F)c1-c1ccccc1Cl", 98),
    ("Cc1nn(C)c(Nc2ccc(F)cc2F)c1-c1ccccc1F", 98),
]

Entry Cc1nn(C)c(Nc2ccc(F)cc2Cl)c1-c1ccc(Cl)cc1Cl has what Test I rating (disease control)?
100

Let us now turn to COc1ccc(-c2c(C)nn(C)c2Oc2ccc(C#N)cc2F)c(Br)c1
95

Let us now turn to Cc1nn(C)c(Nc2c(Cl)cc(Cl)cc2Cl)c1-c1ccc(F)cc1Cl
79

====

test system: Alternaria solani; assay: Test B: tomato early blight, preventive spray on tomato seedlings, visual disease rating; details: tomato early blight; 100 = 100% disease control, 0 = no disease control relative to the controls
OBSERVED PROPERTY: Test B rating (disease control) (%)
All answers are understood in %, so give the number only.

// solved cases for Test B rating (disease control) follow
# COMPOUND, UNIT NAME, Test B rating (disease control)
records = [
    ("Cc1nn(C)c(Nc2ccc(C#N)cc2F)c1-c1ccc(F)cc1F", "%", 51),
    ("Cc1nn(C)c(Nc2ccc(F)cc2Cl)c1-c1ccc(F)cc1F", "%", 93),
    ("Cc1nn(C)c(Oc2c(F)cc(C#N)cc2F)c1-c1ccccc1F", "%", 99),
    ("Cc1nn(C)c(Nc2ccc(Cl)cc2F)c1-c1c(F)cccc1F", "%", 88),
]

Could you now look at the following compound, please?
Entry COc1ccc(-c2c(C)nn(C)c2Oc2ccc(C#N)cc2Cl)c(Br)c1 has what Test B rating (disease control)?
0

====

system: Alternaria solani; assay: Test B: tomato early blight, preventive spray on tomato seedlings, visual disease rating; conditions: tomato early blight; 100 = 100% disease control, 0 = no disease control relative to the controls
OBSERVED PROPERTY: Test B rating (disease control) (%)
All answers are understood in %, so give the number only.

# COMPOUND, Test B rating (disease control) (%)
rows = [
    ("COc1cc(F)c(-c2c(C)nn(C)c2C(O)c2ccc(F)cc2F)c(F)c1 (stereo not drawn)", 100),
    ("COc1ccc(-c2c(C)nn(C)c2Oc2ccc(C#N)cc2F)c(Br)c1", 88),
    ("Cc1nn(C)c(Nc2ccc(Cl)cc2Cl)c1-c1c(F)cccc1Cl", 65),
    ("Cc1nn(C)c(Nc2ccc(F)cc2I)c1-c1ccc(F)cc1F", 97),
]

Entry COc1cc(F)c(Nc2c(-c3ccccc3F)c(C)nn2C)c(F)c1 has what Test B rating (disease control)?
100

Let us now turn to COc1cc(F)c(Nc2c(-c3ccc(Cl)cc3Cl)c(C)nn2C)c(F)c1
98

Let us now turn to Cc1nn(C)c(Nc2c(F)cc(C#N)cc2F)c1-c1c(F)cccc1Cl
100

Let us now turn to Cc1nn(C)c(Nc2c(F)cc(F)cc2F)c1-c1ccccc1F
99

Let us now turn to Cc1nn(C)c(Nc2ccc(F)cc2Cl)c1-c1c(F)cc(C#N)cc1F
98

====

test system: Alternaria solani; experiment: Test B: tomato early blight, preventive spray on tomato seedlings, visual disease rating; settings: tomato early blight; 100 = 100% disease control, 0 = no disease control relative to the controls
OBSERVED PROPERTY: Test B rating (disease control) (%)
All answers are understood in %, so give the number only.

// solved cases for Test B rating (disease control) follow
# MOLECULE, MEASURED TARGET, UNIT NAME, Test B rating (disease control)
data = [
    ("Cc1nn(C)c(Nc2ccc(Cl)cc2F)c1-c1ccc(F)cc1F [compound 160]", "Alternaria solani", "%", 99),
    ("Cc1nn(C)c(Nc2ccc(F)cc2F)c1-c1c(F)cc(C#N)cc1F [compound 30]", "Alternaria solani", "%", 99),
    ("Cc1nn(C)c(C(O)c2c(F)cc(F)cc2F)c1-c1ccc(F)cc1Cl (racemic) [compound 178]", "Alternaria solani", "%", 33),
]

Entry Cc1nn(C)c(Nc2ccc(Br)cc2F)c1-c1ccc(F)cc1Br [compound 169] has what Test B rating (disease control)?
0

Let us now turn to COc1cc(F)c(-c2c(C)nn(C)c2Oc2c(F)cccc2F)c(F)c1 [compound 22]
100

Let us now turn to COc1cc(F)c(-c2c(C)nn(C)c2Nc2c(F)cc(C#N)cc2F)c(F)c1 [compound 20]
100

Let us now turn to COc1cc(Cl)c(Nc2c(-c3ccc(F)cc3Cl)c(C)nn2C)c(Cl)c1 [compound 85]
0

Let us now turn to Cc1nn(C)c(Nc2ccc(F)cc2F)c1-c1c(F)cccc1F [compound 49]
100

Let us now turn to Cc1nn(C)c(Nc2ccc(F)cc2Cl)c1-c1c(Cl)cccc1Cl [compound 109]
0

Let us now turn to Cc1nn(C)c(Oc2ccc(C#N)cc2Cl)c1-c1c(F)cc(F)cc1F [compound 28]
17

Let us now turn to COc1ccc(-c2c(C)nn(C)c2Oc2c(F)cc(C#N)cc2F)c(Cl)c1 [compound 41]
99

====

tested on: Puccinia recondita f. sp. tritici; test: Test H: wheat leaf rust, preventive spray on wheat seedlings, visual disease rating; conditions: wheat leaf rust, sprayed the day before inoculation; 100 = 100% disease control, 0 = no disease control
In this section we review reported Test H rating (disease control) values for a set of molecules.
All answers are understood in %, so give the number only.

// solved cases for Test H rating (disease control) follow
# COMPOUND, VALUE
records = [
    ("Cc1nn(C)c(Nc2c(Cl)cc(Cl)cc2Cl)c1-c1ccc(F)cc1Br", 99),
    ("COc1cc(Cl)c(Nc2c(-c3ccc(F)cc3Br)c(C)nn2C)c(Cl)c1", 94),
    ("COc1cc(F)c(-c2c(C)nn(C)c2Oc2c(F)cc(C#N)cc2F)c(F)c1", 96),
]

Entry Cc1nn(C)c(Nc2c(F)cc(C#N)cc2F)c1-c1c(F)cc(F)cc1F has what Test H rating (disease control)?
99
